biological target: HDGF PWWP domain (human, UniProt P51858 1-100); assay: PIFQ (Cy3 fluorescence quenching); 5 nM DNA; approximation model; HDGF assays: 46 mM NaCl, 0.9 mM KCl, 3.3 mM Na2HPO4, 0.66 mM KH2PO4, pH 7.4; at least 1 h on ice; 1-10 nM Cy3 DNA, 10 pM-100 nM protein; RecA dsDNA control at pH 7.5; conditions: protein: recombinant; label: 5' Cy3
Sequence (P51858 1-100): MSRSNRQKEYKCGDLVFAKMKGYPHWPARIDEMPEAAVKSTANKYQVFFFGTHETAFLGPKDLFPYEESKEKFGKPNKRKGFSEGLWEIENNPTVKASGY
pKd: −log10 of the molar value.
measured.quantity: pKd

Request: Form field: reported pKd of 15 bp SMYD1 dsDNA (5' Cy3) (dsDNA) DNA 1: TTCAAGACCAGCCTG DNA 2: CAGGCTGGTCTTGAA
Response: ~9.00
